# targetUnderTest: CFTR pore-binding site (Homo sapiens, UniProt P13569, K1250A)
# Sequence (P13569 whole entry K1250A): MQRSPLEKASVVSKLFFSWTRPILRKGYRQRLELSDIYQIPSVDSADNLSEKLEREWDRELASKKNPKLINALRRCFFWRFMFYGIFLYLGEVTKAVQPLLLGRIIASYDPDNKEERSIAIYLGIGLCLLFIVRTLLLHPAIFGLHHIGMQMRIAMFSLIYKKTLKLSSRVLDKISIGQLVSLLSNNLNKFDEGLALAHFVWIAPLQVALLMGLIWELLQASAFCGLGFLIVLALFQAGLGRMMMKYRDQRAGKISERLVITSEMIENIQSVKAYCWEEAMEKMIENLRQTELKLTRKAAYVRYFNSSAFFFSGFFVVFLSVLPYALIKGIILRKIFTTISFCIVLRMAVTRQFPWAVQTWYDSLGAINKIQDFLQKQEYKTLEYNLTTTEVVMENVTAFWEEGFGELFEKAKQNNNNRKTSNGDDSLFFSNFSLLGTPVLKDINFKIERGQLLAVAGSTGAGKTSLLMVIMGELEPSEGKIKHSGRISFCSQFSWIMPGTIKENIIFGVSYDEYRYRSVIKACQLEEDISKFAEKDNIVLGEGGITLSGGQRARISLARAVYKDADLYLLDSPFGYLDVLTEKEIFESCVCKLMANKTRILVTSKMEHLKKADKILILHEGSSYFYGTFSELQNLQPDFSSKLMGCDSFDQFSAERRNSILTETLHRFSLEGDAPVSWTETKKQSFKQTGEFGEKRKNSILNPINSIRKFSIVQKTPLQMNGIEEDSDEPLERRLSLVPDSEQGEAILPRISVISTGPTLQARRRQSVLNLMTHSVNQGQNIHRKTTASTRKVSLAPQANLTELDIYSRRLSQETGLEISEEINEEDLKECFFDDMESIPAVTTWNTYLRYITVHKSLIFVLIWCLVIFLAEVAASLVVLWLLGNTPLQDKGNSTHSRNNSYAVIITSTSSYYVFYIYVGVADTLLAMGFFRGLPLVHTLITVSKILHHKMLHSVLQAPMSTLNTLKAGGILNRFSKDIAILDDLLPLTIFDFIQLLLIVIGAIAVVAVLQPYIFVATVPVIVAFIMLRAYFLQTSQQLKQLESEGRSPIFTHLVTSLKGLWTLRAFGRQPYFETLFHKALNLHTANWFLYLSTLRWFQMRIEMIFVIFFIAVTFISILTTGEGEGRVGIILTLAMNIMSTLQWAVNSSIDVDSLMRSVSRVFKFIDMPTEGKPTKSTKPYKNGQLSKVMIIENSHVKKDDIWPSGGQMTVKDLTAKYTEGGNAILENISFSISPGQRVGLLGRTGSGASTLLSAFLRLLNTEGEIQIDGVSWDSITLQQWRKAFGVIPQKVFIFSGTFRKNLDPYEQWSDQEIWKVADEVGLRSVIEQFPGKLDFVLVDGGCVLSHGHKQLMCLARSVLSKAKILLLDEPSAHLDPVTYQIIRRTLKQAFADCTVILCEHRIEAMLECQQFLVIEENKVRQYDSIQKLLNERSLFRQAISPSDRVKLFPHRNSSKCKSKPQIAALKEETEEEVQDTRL
# testProtocol: Estimated dissociation constants and free enthalpies of binding in the pore
# Assay type: biochemical
# testContext: Kd(0) estimate for binding in the pore, assuming z = 0.1
experimentalReadout: Kd (mM)

| smilesInput | reportedValue |
| --- | --- |
| NCCCc1ccccc1 | 12.6 |
